List of melting point values.
Where a name gives a salt, the structure may show the parent alone.

Worked set:
| compound | melting point |
| --- | --- |
| CC(C)N1CCC(O)(c2ccc(F)c(F)c2)C1 (centres unmarked) (as salt: fumaric acid salt) | 143 to 147 °C |
| CCN1CCC(O)(c2cc(F)cc(F)c2)C1 (single isomer, unassigned; (+)) (as salt: oxalic acid salt) [Example 2] | 137 to 139 °C |
| CCCN1CCC(O)(c2cccc(F)c2F)C1 (centres unmarked) (as salt: fumaric acid salt) [Example 34] | 95 to 98 °C |

Input line: What value of measured melting point is listed for CCN1CCC(O)(c2cccc(Cl)c2F)C1 (centres unmarked) (as salt: oxalic acid salt) [Example 35] ?
Output line: 71 to 74 °C

Input line: Item: CCN1CCC(O)(c2cc(F)cc(F)c2)C1 (single isomer, unassigned; (-)) (as salt: oxalic acid salt) [Example 1]
Output line: 111 to 112 °C

Input line: And the next one, CCN1CCC(O)(c2ccc(F)c(Cl)c2)C1 (centres unmarked) (as salt: fumaric acid salt) [Example 3] ?
Output line: 157 to 158 °C

Input line: Also check CCCN1CCC(O)(c2ccc(F)c(Cl)c2)C1 (centres unmarked) (as salt: fumaric acid salt)
Output line: 157.9 °C

Input line: Try this compound too: CCN1CCC(O)(c2cc(F)cc(Cl)c2)C1 (centres unmarked) (as salt: oxalic acid salt) [Example 5]
Output line: 169 to 170 °C

Input line: What about this compound? CCN1CCC(O)(c2cc(F)cc(Cl)c2)C1 (centres unmarked) (as salt: oxalic acid salt) [Example 31]
Output line: 117 to 118 °C

Input line: And the next one, CN1CCC(O)(c2ccc(F)cc2F)C1 (centres unmarked) (as salt: oxalic acid salt) ?
Output line: 117 to 119 °C

Input line: Now the compound CC(C)CN1CCC(O)(c2cc(F)cc(F)c2)C1 (centres unmarked) (as salt: oxalic acid salt) [Example 53]
Output line: 164 to 165 °C

Input line: Also need CN1CCC(O)(c2cc(F)cc(Cl)c2)C1 (centres unmarked) (as salt: oxalic acid salt) [Example 65] , thanks.
Output line: 117 to 118 °C

Input line: Thanks! And COCCN1CCC(O)(c2cccc(F)c2F)C1 (single isomer, unassigned; (-)) (as salt: oxalic acid salt) [Example 42] ?
Output line: 146.7 °C

Input line: # repeat for CC(C)CN1CCC(O)(c2cccc(F)c2F)C1 (centres unmarked) (as salt: oxalic acid salt) [Example 39]
Output line: 176 °C

Input line: How about this compound: CCCCN1CCC(O)(c2cccc(F)c2F)C1 (centres unmarked) (as salt: oxalic acid salt) [Example 38]
Output line: 155.3 °C
